molecular target: γ-secretase (Aβ1-40 production) (Homo sapiens); construct: made in house; host or cells: S-1 CHO cell line (Chinese hamster ovary); test: γ-Secretase assay, Aβ1-40 ELISA; format: biochemical; conditions: 100 μM
attributeMeasured: inhibition at 100 µM (%)

Worked cases, answers included:
Sample Cc1ccc(C(O)CCN(Cc2ccccc2)C(C)C)cc1F (centres unmarked) — what was its inhibition at 100 µM?
29

Fill in the blank: the reported inhibition at 100 µM of CC(C)N(CCC(Oc1ccc(C(F)(F)F)cc1)c1ccc2ccccc2c1)Cc1ccccc1 (centres unmarked) is ____.
50

Query: inhibition at 100 µM; subject: COc1ccc(C(O)CCN(Cc2ccccc2)C(C)C)cc1F (centres unmarked)
0

Look at this molecule and give its reported inhibition at 100 µM. OC(CCNc1ccc(C(F)(F)F)cc1)c1ccc2ccccc2c1 (centres unmarked)
0

Given the entry CC(C)N(CCC(O)c1ccc(F)cc1)Cc1ccccc1 (centres unmarked) , report its measured inhibition at 100 µM.
17

Look up inhibition at 100 µM for this molecule: COc1ccc(CN(CCC(O)c2ccc3ccccc3c2)C(C)C)cc1 (centres unmarked)
55

Field request: inhibition at 100 µM | item: CC(C)N(CCC(O)c1ccc2ccccc2c1)c1ccccc1 (centres unmarked)
68

Suppose we examine the molecule CC(C)N(CCC(O)c1ccc2ccccc2c1)c1ccc(Cl)cc1 (centres unmarked) ; what inhibition at 100 µM value has been reported?
0

So what's the measured inhibition at 100 µM for this one? CC(C)N(CCC(O)c1cc(C(F)(F)F)cc(C(F)(F)F)c1)Cc1ccccc1 (centres unmarked)
47

Reported inhibition at 100 µM, molecule CC(C)N(CCC(O)c1cccc(OCc2ccccc2)c1)Cc1ccccc1 (centres unmarked) : ____
31

A = CC(C)N(CCC(O)c1cccc2ccccc12)Cc1ccccc1 (centres unmarked)
B = CC(C)N(CC[C@H](O)c1ccc2ccccc2c1)Cc1ccccc1
// pick min by inhibition at 100 µM: A , B Indicate your choice by writing its label.
B
(B: 17%, A: 46%)

* * *

molecular target: γ-secretase (N100FLAG Notch-based substrate) (Homo sapiens, UniProt P49768); construct: made in house; host or cells: S-1 CHO cell line (Chinese hamster ovary); test: In vitro γ-secretase assay, N-100 Flag (Notch-based substrate) cleavage; assay type: biochemical; settings: effect on N-100 Flag cleavage; compounds tested in vitro at 100 μM
attributeMeasured: γ-Secretase Assay N-100 Flag

Provide the documented γ-Secretase Assay N-100 Flag with γ-secretase (N100FLAG Notch-based substrate) (Homo sapiens, UniProt P49768) as the system for CC(C)N(CCC(O)c1cc(F)cc(Cl)c1)Cc1ccccc1 (stereo not drawn) [Example 55]
Inh

Lab request: please report γ-Secretase Assay N-100 Flag under test system γ-secretase (N100FLAG Notch-based substrate) (Homo sapiens, UniProt P49768) for OC(CN1CCN(c2ccccc2)CC1)c1ccc2ccccc2c1 (stereo not drawn) [Example 81]
Enh

Request: γ-Secretase Assay N-100 Flag, test system γ-secretase (N100FLAG Notch-based substrate) (Homo sapiens, UniProt P49768), entry OC(CCN1CCN(c2ccccc2)CC1)c1ccc2ccccc2c1 (stereo not drawn) [Example 3]
Enh

Item CC(C)N(CCC(O)c1ccc(C(F)(F)F)cc1)Cc1ccccc1 (stereo not drawn) [Example 41] with γ-secretase (N100FLAG Notch-based substrate) (Homo sapiens, UniProt P49768) - γ-Secretase Assay N-100 Flag?
Enh

Others:
Look up γ-Secretase Assay N-100 Flag with γ-secretase (N100FLAG Notch-based substrate) (Homo sapiens, UniProt P49768) for this molecule: CC(C)N(CCC(O)c1ccc2ccccc2c1)Cc1ccc(Cl)c(Cl)c1 (stereo not drawn) [Example 17]
Enh

Item: CC(C)N(CCC(O)c1ccc2ccccc2c1)c1ccccc1 (stereo not drawn) [Example 20] Test system: γ-secretase (N100FLAG Notch-based substrate) (Homo sapiens, UniProt P49768) Read-out: γ-Secretase Assay N-100 Flag Value: ?
Inh

# value lookup — system γ-secretase (N100FLAG Notch-based substrate) (Homo sapiens, UniProt P49768), readout γ-Secretase Assay N-100 Flag, item CC(C)N(CCC(O)c1cc(C(F)(F)F)cc(C(F)(F)F)c1)Cc1ccccc1 (stereo not drawn) [Example 57]
Inh
